Test system: WI-38
protocol: Antiproliferative activity against human WI38 cells after 72 hrs by MTT assay
Type: cell-based
statedConditions: WI-38, 72 h
pIC50: −log10 of the molar value.
reportedProperty: pIC50

Consider the worked cases shown below.
According to the records, this compound CC(=O)OCC(O)(COC(C)=O)Cc1c(C)c(=O)[nH]c(=O)n1C displays pIC50 of < 4.00

According to the records, this compound CC(=O)OCC(=Cc1c(C)c(=O)[nH]c(=O)n1C)COC(C)=O displays pIC50 of < 4.00

According to the records, this compound COc1nc(=O)n(C)c(CC(O)(COCc2ccccc2)COCc2ccccc2)c1C displays pIC50 of 4.30

According to the records, this compound COc1nc(=O)n(C)c(CC(O)(COC(C)=O)COC(C)=O)c1C displays pIC50 of < 4.00

According to the records, this compound Cc1c(CC(O)(CO)CO)n(C)c(=O)[nH]c1=O displays pIC50 of < 4.00

According to the records, this compound CC(=O)OCC(F)(COC(C)=O)Cc1c(C)c(=O)[nH]c(=O)n1C displays pIC50 of < 4.00

According to the records, this compound COc1nc(CC(F)(COC(C)=O)COC(C)=O)c(C)c(OC)n1 displays pIC50 of < 4.00

According to the records, this compound Cc1c(C=C(CO)CO)n(C)c(=O)[nH]c1=O displays pIC50 of < 4.00

According to the records, this compound COc1nc(CC(O)(COCc2ccccc2)COCc2ccccc2)c(C)c(OC)n1 displays pIC50 of 5.42

According to the records, this compound COc1nc(CC(O)(CO)CO)c(C)c(OC)n1 displays pIC50 of < 4.00

Further cases:
According to the records, this compound COc1nc(=O)n(C)c(CC(F)(COC(C)=O)COC(C)=O)c1C displays pIC50 of < 4.00

According to the records, this compound COc1nc(CC(O)(COC(C)=O)COC(C)=O)c(C)c(OC)n1 displays pIC50 of < 4.00

According to the records, this compound COc1nc(=O)n(C)c(CC(O)(CO)CO)c1C displays pIC50 of < 4.00

###

System: HeLa
protocol: Antiproliferative activity against human HeLa cells after 72 hrs by MTT assay
Assay type: functional, cell-based
pIC50: −log10 of the molar value.
List of pIC50 values.

Consider the worked cases shown below.
The compound COc1nc(CC(F)(COC(C)=O)COC(C)=O)c(C)c(OC)n1 , when measured on HeLa, yielded pIC50 of < 4.00

The compound COc1nc(=O)n(C)c(CC(O)(CO)CO)c1C , when measured on HeLa, yielded pIC50 of < 4.00

The compound COc1nc(CC(O)(COC(C)=O)COC(C)=O)c(C)c(OC)n1 , when measured on HeLa, yielded pIC50 of < 4.00

The compound COc1nc(CC(O)(COCc2ccccc2)COCc2ccccc2)c(C)c(OC)n1 , when measured on HeLa, yielded pIC50 of 5.44

The compound CC(=O)OCC(F)(COC(C)=O)Cc1c(C)c(=O)[nH]c(=O)n1C , when measured on HeLa, yielded pIC50 of < 4.00

Further cases:
The compound COc1nc(CC(O)(CO)CO)c(C)c(OC)n1 , when measured on HeLa, yielded pIC50 of < 4.00

The compound COc1nc(=O)n(C)c(CC(F)(COC(C)=O)COC(C)=O)c1C , when measured on HeLa, yielded pIC50 of < 4.00

The compound COc1nc(=O)n(C)c(CC(O)(COCc2ccccc2)COCc2ccccc2)c1C , when measured on HeLa, yielded pIC50 of 4.53

The compound CC(=O)OCC(=Cc1c(C)c(=O)[nH]c(=O)n1C)COC(C)=O , when measured on HeLa, yielded pIC50 of < 4.00

The compound Cc1c(C=C(CO)CO)n(C)c(=O)[nH]c1=O , when measured on HeLa, yielded pIC50 of < 4.00

The compound Cc1c(CC(O)(CO)CO)n(C)c(=O)[nH]c1=O , when measured on HeLa, yielded pIC50 of < 4.00

The compound COc1nc(=O)n(C)c(CC(O)(COC(C)=O)COC(C)=O)c1C , when measured on HeLa, yielded pIC50 of < 4.00

The compound CC(=O)OCC(O)(COC(C)=O)Cc1c(C)c(=O)[nH]c(=O)n1C , when measured on HeLa, yielded pIC50 of < 4.00
